# testTarget: hAhR (Homo sapiens)
# Construct: Stably integrated DRE-luciferase cell lines were generated by transducing the both cell lines with Cignal XRE luciferase reporter (Qiagen) lentiviral particles; endogenous in cells
# assayComment: AhR DRE-luciferase reporter transcriptional assay, antagonist mode (TCDD-induced)
# studyConditions: HEPG2 DRE-Luc cells, 3 nM TCDD, 24 hour incubation, relative IC50
pIC50: −log10 of the molar value.
propertyName: pIC50

Here is how some compounds turned out for pIC50.
[
  {
    "compoundSmiles": "Cc1cc(C(=O)Nc2ccc(-c3ncc4nc(C(F)(F)F)cc(C)c4n3)cc2C)ccn1",
    "testTarget": "hAhR (Homo sapiens)",
    "pIC50": "> 6.70"
  },
  {
    "compoundSmiles": "Cc1cc(-c2ccc3cc(F)ccc3n2)ccc1NC(=O)c1ccccc1",
    "testTarget": "hAhR (Homo sapiens)",
    "pIC50": "6.00 to 6.30"
  },
  {
    "compoundSmiles": "Cc1cc(C(=O)Nc2ccc(-c3ncc4cc(C(F)(F)F)ccc4n3)cc2C)c(C)cn1",
    "testTarget": "hAhR (Homo sapiens)",
    "pIC50": "> 6.70"
  }
]

Q: What value of pIC50 has been recorded for this entry: Cc1cc(-c2ncc3cc(C(F)(F)F)ccc3n2)ccc1NC(=O)c1ccncc1
Ans: > 6.70

Q: Could you do the same for Cc1cc(-c2ccc3ncn(C)c3c2)ccc1NC(=O)c1ccnn1C , please?
Ans: 5.00 to 6.00

Q: Could you do the same for Cc1cc(-c2ncc3nc(C(F)(F)F)cc(C)c3n2)c(F)cc1N(C)C(=O)c1ccnn1C , please?
Ans: > 6.70

Q: Could you do the same for Cc1cc(-c2ncc3nc(C(F)(F)F)cc(C)c3n2)ccc1NC(=O)c1ccnn1CCO , please?
Ans: > 6.70

Q: Could you do the same for Cc1cc(C(=O)N(C)c2ccc(-c3ncc4cc(C(F)(F)F)ccc4n3)cc2C)c(C)cn1 , please?
Ans: > 6.70

Q: Could you do the same for Cc1nc(-c2ccc3cc(F)ccc3n2)ccc1NC(=O)c1ccnn1C , please?
Ans: 5.00 to 6.00

Q: Could you do the same for Cc1cc(-c2ncc3cc(C(F)(F)F)ccc3n2)ccc1N(C)C(=O)c1ccnn1CC(N)=O , please?
Ans: > 6.70

Q: Could you do the same for Cc1cc(-c2ccc3cncc(Cl)c3n2)ccc1NC(=O)c1ccnn1C , please?
Ans: > 6.70

Q: Could you do the same for Cc1cc(-c2ncc3cc(C(F)(F)F)ccc3n2)ccc1NC(=O)c1cn(C)nc1C , please?
Ans: > 6.70

Q: Could you do the same for Cc1cc(-c2ncc3ccn(CC(F)(F)F)c3n2)ccc1NC(=O)c1ccnn1C , please?
Ans: 6.30 to 6.70

Q: Could you do the same for Cc1cc(-c2ccc3cccc(F)c3n2)ccc1NC(=O)OC(C)(C)C , please?
Ans: 5.00 to 6.00

Q: Could you do the same for Cc1cc(-c2ccc3cc(F)cc(C(C)C)c3n2)ccc1NC(=O)c1ccnn1C , please?
Ans: 5.00 to 6.00

Q: Could you do the same for Cc1c(NC(=O)c2ccnn2C)ccc(-c2ncc3nc(C(F)(F)F)ccc3n2)c1C , please?
Ans: 5.00 to 6.00

Q: Could you do the same for CC(=O)N(C)c1ccc(-c2ncc3cc(C(F)(F)F)ccc3n2)cc1C , please?
Ans: > 6.70

Q: Could you do the same for Cc1cc(-c2cc(C)c3ccccc3n2)ccc1NC(=O)c1ccnn1C , please?
Ans: 6.00 to 6.30

Q: Could you do the same for Cc1cc(-c2ncc3nc(C(F)(F)F)cc(C)c3n2)ccc1N(C)C(=O)c1ccnn1CCOP(=O)(O)O , please?
Ans: 5.00 to 6.00

###

Listed next: entries and their corresponding pIC50.
# testTarget: hAhR (Homo sapiens, UniProt P35869)
# Construct: Stably integrated DRE-luciferase cell lines were generated by transducing the both cell lines with Cignal XRE luciferase reporter (Qiagen) lentiviral particles; endogenous in cells
# assayComment: AhR DRE-luciferase reporter transcriptional assay, antagonist mode (TCDD-induced)
# Type: cell-based
# studyConditions: HEPG2 DRE-Luc cells, 3 nM TCDD, 24 hour incubation, relative IC50
pIC50: −log10 of the molar value.

Here is how some molecules turned out for pIC50.
[
  {
    "molecule": "Cc1cc(-c2ccc3cc(F)ccc3n2)ccc1NC(=O)N1CCOCC1 [Example 041]",
    "pIC50": "5.00 to 6.00"
  },
  {
    "molecule": "Cc1cc(-c2ncc3cc(C(F)(F)F)ccc3n2)ccc1N(C)C(=O)c1ncccc1C [Example 118]",
    "pIC50": "6.30 to 6.70"
  },
  {
    "molecule": "Cc1cc(C(=O)N(C)c2ccc(-c3ncc4nc(C(F)(F)F)cc(C)c4n3)cc2C)ccn1 [Example 150]",
    "pIC50": "> 6.70"
  },
  {
    "molecule": "Cc1cc(-c2ncc3nc(C(F)(F)F)cc(C)c3n2)ccc1N(C)C(=O)c1ccnn1CC(C)(C)O [Example 224]",
    "pIC50": "6.30 to 6.70"
  },
  {
    "molecule": "Cc1cc(-c2ncc3cc(C(F)(F)F)ccc3n2)ccc1N(C)C(=O)c1c(C)cnn1C [Example 217]",
    "pIC50": "> 6.70"
  }
]

Q: Please provide the recorded pIC50 for Cc1cc(-c2ccc3c(ccn3C)c2)ccc1NC(=O)c1ccnn1C [Example 083] , tested on hAhR (Homo sapiens, UniProt P35869).
Ans: 6.00 to 6.30

###

# testTarget: hAhR (Homo sapiens, UniProt P35869)
# Construct: Stably integrated DRE-luciferase cell lines were generated by transducing the both cell lines with Cignal XRE luciferase reporter (Qiagen) lentiviral particles; endogenous in cells
# Sequence (P35869 11-848): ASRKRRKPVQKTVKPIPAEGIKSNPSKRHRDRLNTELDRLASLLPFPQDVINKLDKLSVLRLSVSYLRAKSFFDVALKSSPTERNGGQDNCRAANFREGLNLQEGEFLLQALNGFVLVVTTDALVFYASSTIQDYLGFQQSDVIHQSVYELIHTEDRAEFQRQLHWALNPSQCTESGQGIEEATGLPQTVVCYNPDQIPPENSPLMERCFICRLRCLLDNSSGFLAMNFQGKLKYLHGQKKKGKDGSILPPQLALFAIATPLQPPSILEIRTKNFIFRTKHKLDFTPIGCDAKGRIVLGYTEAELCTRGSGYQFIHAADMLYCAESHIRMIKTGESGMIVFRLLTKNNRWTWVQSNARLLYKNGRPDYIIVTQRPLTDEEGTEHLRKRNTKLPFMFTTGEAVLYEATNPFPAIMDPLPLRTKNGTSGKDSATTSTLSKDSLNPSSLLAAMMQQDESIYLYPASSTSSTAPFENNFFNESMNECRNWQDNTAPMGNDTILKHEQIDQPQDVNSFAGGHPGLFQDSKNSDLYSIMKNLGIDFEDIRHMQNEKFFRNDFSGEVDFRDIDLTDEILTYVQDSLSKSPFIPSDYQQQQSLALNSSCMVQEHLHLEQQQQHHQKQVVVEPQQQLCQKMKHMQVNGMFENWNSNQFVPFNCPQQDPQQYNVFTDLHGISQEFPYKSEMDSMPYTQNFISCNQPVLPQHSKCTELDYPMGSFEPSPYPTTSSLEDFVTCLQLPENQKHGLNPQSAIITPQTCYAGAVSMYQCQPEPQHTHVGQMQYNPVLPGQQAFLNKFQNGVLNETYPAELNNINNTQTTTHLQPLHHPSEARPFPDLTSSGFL
# assayComment: AhR DRE-luciferase reporter transcriptional assay, antagonist mode (TCDD-induced)
# studyConditions: HEPG2 DRE-Luc cells, 3 nM TCDD, 24 hour incubation, relative IC50
propertyName: IC50

Here is how some compounds turned out for IC50.
[
  {
    "compoundSmiles": "COC(=O)Nc1ccc(-c2ccc3cc(F)ccc3n2)cc1C",
    "testTarget": "hAhR (Homo sapiens, UniProt P35869)",
    "IC50": "200 to 500 nM"
  },
  {
    "compoundSmiles": "Cc1cc(-c2ncc3cc(C(F)(F)F)ccc3n2)ccc1NC(=O)c1ccnc(C(N)=O)c1",
    "testTarget": "hAhR (Homo sapiens, UniProt P35869)",
    "IC50": "< 200 nM"
  },
  {
    "compoundSmiles": "Cc1cc(-c2ccc3cc(F)ccc3n2)ccc1NC(=O)c1ccncc1",
    "testTarget": "hAhR (Homo sapiens, UniProt P35869)",
    "IC50": "500 to 1000 nM"
  }
]

Q: What value of IC50 has been recorded for this entry: Cc1cc(-c2ccc3cc(C(F)(F)F)ccc3n2)ccc1N(C)C(=O)c1ccnn1C
Ans: < 200 nM

###

# testTarget: hAhR (Homo sapiens, UniProt P35869)
# Construct: Stably integrated DRE-luciferase cell lines were generated by transducing the both cell lines with Cignal XRE luciferase reporter (Qiagen) lentiviral particles; endogenous in cells
# assayComment: AhR DRE-luciferase reporter transcriptional assay, antagonist mode (TCDD-induced)
# studyConditions: HEPG2 DRE-Luc cells, 3 nM TCDD, 24 hour incubation, relative IC50
pIC50: −log10 of the molar value.
propertyName: pIC50

Here is how some molecules turned out for pIC50.
[
  {
    "molecule": "Cc1cc(-c2ccc3c(C(F)(F)F)cn(C)c3c2)ccc1N(C)C(=O)c1ccnn1C",
    "pIC50": "5.00 to 6.00"
  },
  {
    "molecule": "Cc1cc(-c2ncc3nc(C(F)(F)F)cc(C)c3n2)ccc1N(C)C(=O)c1ccnn1CC(C)O (centres unmarked)",
    "pIC50": "> 6.70"
  }
]

Q: What value of pIC50 has been recorded for this entry: Cn1nccc1C(=O)Nc1ccc(-c2ccc3nc(C(F)(F)F)ccc3n2)cc1F
Ans: > 6.70

Q: Could you do the same for Cc1cc(-c2ncc3cc(C(F)(F)F)ccc3n2)ccc1N(C)C(=O)c1ccnn1CCN1CCOCC1 , please?
Ans: > 6.70
